Target: human cannabinoid receptor type 1 (CB1) (human, UniProt P21554 1-472)
Sequence (P21554 whole entry): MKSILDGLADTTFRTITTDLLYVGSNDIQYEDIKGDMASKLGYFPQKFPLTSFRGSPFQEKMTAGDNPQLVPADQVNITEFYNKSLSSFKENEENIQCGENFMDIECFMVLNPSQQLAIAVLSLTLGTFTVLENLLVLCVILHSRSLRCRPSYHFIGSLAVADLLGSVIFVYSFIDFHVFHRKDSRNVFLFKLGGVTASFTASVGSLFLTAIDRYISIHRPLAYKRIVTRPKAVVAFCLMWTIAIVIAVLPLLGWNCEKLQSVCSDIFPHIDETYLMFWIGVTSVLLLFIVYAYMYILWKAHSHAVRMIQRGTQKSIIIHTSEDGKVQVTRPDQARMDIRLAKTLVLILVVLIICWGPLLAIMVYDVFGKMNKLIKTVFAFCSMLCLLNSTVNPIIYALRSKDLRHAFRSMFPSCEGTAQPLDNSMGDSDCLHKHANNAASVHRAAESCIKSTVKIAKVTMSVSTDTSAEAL
Experiment: cell-based or functional assay
Exercise: for every item that follows, state its recorded cAMP EC50 (nM) Data Set 1.
Provide only the numeric value, understood in nM.

For the binder M3 mouse anti-huCB-1 antibody (antibody, V domains shown) VH: QVQLQQSGPELVRPGVSVKISCKGSGYEFTDYALHWVKQSHAETLEWIGLITTYYGDTNYNQKFKGKATMTVDKSSSTAYMELARLTSEDSAIYYCARGGYYYGTDYRYFDVWGAGTTVTVSS VL: DILLTQSPAILSVSPGERVSFSCRASQSIGTNIHWYQQRPNGSPRLLIKYASESISGIPSRFSGSGSGSDFTLSINSVESEDIADYYCQQSITWPLTFGAGTKLELK , what cAMP EC50 (nM) Data Set 1 is on record? 290

Same thing, different binder: M8 mouse anti-huCB-1 antibody (antibody, V domains shown) VH: QVQLQQPGAELVKPGASVKLSCKASGYTFTDYWMHWVKQRPGHGLEWIGEIYPSSGRANYNGNFKRKATLTVDKSSSTAYMQLSSLTSEDSAVYYCARSRGNYLPYWGHGTPVTVSA VL: QIVLTQSPAIMSASLGERVTMTCTAGSTVSSSYLHWYQQRPGSSPKLWIYGTSNLASGVPARFSGSGSGTSYSLTISSMEAEDAATYYCHQYHRSPPTFGGGTKLEIK 96

Entry M5 mouse anti-huCB-1 antibody (antibody, V domains shown, The humanized M5-H1 and M5-H2 carry the CDRs of the un-numbered VL, so that one may be the functional light chain) VH: QVHLQQSGAELVRPGSSVKISCKASGYEFSYYWMNWVKQRPGQGHEWIGQIYPGDGDTNYNGKFKGKATLTADKSSSTAYMQLSSLTSEDSAVYFCARGREAAWFAYWGQGTLVTVSA VL: DIVLAQSPASLAVSLGQRATISCRASQSVSSFRYSYLHWYQQKPGQPPRLLIKYASNLESGVPARFSGSGSGTDFTLNIHPVEEEDTATYFCQHSWEIPFTFGSGTKLEIKR please 91
